Give measured normalized growth for each item. Keep answers brief.
Test: chemical genetic growth profiling, strain panel (AID 1159580);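 also: tested at 20 µM; growth read once vehicle control cultures reached saturation at 30 °C; 1 = growth at the plate median or of vehicle wells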
Conditions: S. cerevisiae deletion strains, growth OD, locus YDR054C, strain cdc34, stronger effect = lower value
In all, about 5,500 compounds went through this assay and about 2,000 (36%) were called active. Another 18% or so got no clear call; they are omitted. Some of the results follow.
Could you respond with only the numeric value?

# query: normalized growth of entry `O=C(NCc1ccc(F)c(Cl)c1)Nc1csc([N+](=O)[O-])c1`
0.989

# query: normalized growth of entry CC(Oc1ccc(Cl)cc1Cl)C(=O)NNC(=S)Nc1ccccc1 (stereo unspecified)
0.982

# query: normalized growth of entry `O=C(N/N=C\c1cc(Cl)cc(Cl)c1O)c1ccccc1Oc1ccccc1`
0.96

# query: normalized growth of entry `COc1ccc(-c2cc(NS(=O)(=O)c3cccc(F)c3)n(-c3ccc(Cl)c(Cl)c3)n2)cc1`
0.966

# query: normalized growth of entry `O=S(=O)(Nc1ccc(-n2nc(C(F)(F)F)cc2-c2cccs2)cc1)c1ccc(F)cc1`
0.982

# query: normalized growth of entry `COc1ccc(/C(C#N)=C2C=C/C(=N/O)C(Cl)=C\2)cc1`
0.958

# query: normalized growth of entry FC(F)(F)c1ccc(C2Sc3ccccc3N=C3c4ccccc4CC32)cc1 (stereo unspecified)
1.02

# query: normalized growth of entry `COC(=O)c1ccc(Oc2c(C(F)(F)F)oc3cc(O)ccc3c2=O)cc1`
0.959

# query: normalized growth of entry `CSC(SC)=C(C#N)C(=O)c1ccccc1Cl`
0.507

# query: normalized growth of entry `O=S(=O)(Nc1cc(-c2cccs2)nn1-c1ccc(I)cc1)c1cccc(F)c1`
0.986

# query: normalized growth of entry `CCCCCc1ccc(S(=O)(=O)Nc2ncc(C)cc2Br)cc1`
0.945

---

Assay: chemical genetic growth profiling, strain panel (AID 1159580)
Conditions: S. cerevisiae deletion strains, growth OD, locus YIL073C, strain SPO22, stronger effect = lower value
Hit rate of the full screen: of about 5,500 compounds, about 2,000 (36%) were called active. Roughly 18% stayed inconclusive and do not appear here. The list shows a part of the results.
ASSAY_ENDPOINT: normalized growth

# query: normalized growth of entry CC(=O)OC1CCC2C3CCc4cc(O)ccc4C3CCC12C (configuration not stated)
0.957 (inactive)

# query: normalized growth of entry `CN1CCN(CCCN2c3ccccc3Sc3ccc(Cl)cc32)CC1`
0.854 (inactive)

# query: normalized growth of entry `COc1ccc2c(=O)c(CC(=O)O)coc2c1`
0.974 (inactive)

# query: normalized growth of entry `Nc1ncnc2nc[nH]c12`
0.594 (active)

# query: normalized growth of entry CCCCC(=O)O[C@H]1CCC2C3CCc4cc(O)ccc4C3CC[C@@]21C (some centres not stated)
1 (inactive)

# query: normalized growth of entry CCC(=O)O[C@H]1CCC2C3CCc4cc(O)ccc4C3CC[C@@]21C (some centres not stated)
0.781 (inactive)

# query: normalized growth of entry `OCCN1CCN(CCCN2c3ccccc3Sc3ccc(Cl)cc32)CC1`
1.01 (inactive)

# query: normalized growth of entry `CNC(=O)CSP(=S)(OC)OC`
1.09 (inactive)

# query: normalized growth of entry `O=[N+]([O-])/N=C1/NCCN1Cc1ccc(Cl)cc1`
0.995 (inactive)

# query: normalized growth of entry `O=c1[nH]cnc2nc[nH]c12`
0.963 (inactive)

# query: normalized growth of entry `O=c1cc(-c2ccc(O)cc2)oc2cc(O[C@@H]3O[C@H](CO)[C@@H](O)[C@H](O)[C@H]3O[C@@H]3OC[C@](O)(CO)[C@H]3O)cc(O)c12`
1.01 (inactive)

# query: normalized growth of entry `Nc1ncnc2c1ncn2[C@@H]1O[C@H](CO)[C@@H](O)[C@@H]1O`
1.08 (inactive)

---

Give measured normalized growth for each item. Keep answers brief.
Assay: chemical genetic growth profiling, strain panel (AID 1159580);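 also: tested at 20 µM; growth read once vehicle control cultures reached saturation at 30 °C; 1 = growth at the plate median or of vehicle wells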
Conditions: S. cerevisiae deletion strains, growth OD, locus YKL085W, strain MDH1, stronger effect = lower value
The campaign covered roughly 5,500 compounds. About 2,000 (36%) were called active. Roughly 18% stayed inconclusive and do not appear here. The list shows a part of the results.
Could you respond with only the numeric value?

# query: normalized growth of entry `COc1cc(OC)c(-c2c(OC)cc(OC)cc2OC)c(OC)c1`
1.01

# query: normalized growth of entry `Fc1ccc(C(c2ccc(F)cc2)N2CCN(C/C=C/c3ccccc3)CC2)cc1`
0.974

# query: normalized growth of entry `O=[N+]([O-])/N=C1/NCCN1Cc1ccc(Cl)cc1`
0.989

# query: normalized growth of entry CC1=C(C(=O)O)N2C(=O)[C@@H](NC(=O)[C@H](N)C3=CCC=CC3)C2SC1 (stereo not given in full)
0.978

# query: normalized growth of entry `CC(=O)N[C@@H](CC(=O)O)C(=O)O`
1.01

# query: normalized growth of entry `O=c1c(-c2ccc3c(c2)OCO3)coc2cc(O)ccc12`
0.995

# query: normalized growth of entry COC(=O)C[C@H]1C(C)(C)C(OC(C)=O)[C@]2(O)C=C3C4CC(=O)O[C@@H](c5ccoc5)[C@]4(C)CCC3[C@@]1(C)C2=O (stereo not given in full)
1.01

# query: normalized growth of entry `CCOc1ccc(Cc2nccc3cc(OCC)c(OCC)cc23)cc1OCC`
0.985

# query: normalized growth of entry `COc1ccc2c(=O)c(CC(=O)O)coc2c1`
1.01

# query: normalized growth of entry `O=C(CCCN1CC=C(n2c(=O)[nH]c3ccccc32)CC1)c1ccc(F)cc1`
0.994

# query: normalized growth of entry `COc1ccc2c(=O)c(-c3cc4c(cc3OC)OCO4)coc2c1`
1.02

# query: normalized growth of entry `COc1cc2c(cc1-c1coc3c4c(c(OC)cc3c1=O)OC(C)(C)C=C4)OCO2`
1

# query: normalized growth of entry `COc1cc(O)c(C(=O)c2ccccc2)c(OC)c1`
0.987

# query: normalized growth of entry `COc1ccc2c(c1)[nH]c1c(C)nccc12`
0.979

# query: normalized growth of entry `COc1cc(O)c(C(C)=O)c(OC)c1`
1.01

# query: normalized growth of entry `CNC(=O)CSP(=S)(OC)OC`
1.01

# query: normalized growth of entry `COc1cc(OC)cc(OC)c1`
0.211

# query: normalized growth of entry `COc1ccc(Cc2nccc3cc(OC)c(OC)cc23)cc1OC`
0.991

# query: normalized growth of entry C[C@]12C=CC(=O)C=C1CCC1C2C(=O)C[C@@]2(C)C1CC[C@]2(O)C(=O)CO (stereo not given in full)
0.998

# query: normalized growth of entry CC(C(=O)O)c1ccc(N2Cc3ccccc3C2=O)cc1 (stereo not given)
0.99

# query: normalized growth of entry `COc1cc2ccc(=O)oc2c2ccoc12`
0.999

# query: normalized growth of entry `COc1c(O)cc(O)cc1O`
1.02

# query: normalized growth of entry `CCCCC/C=C\C/C=C\C/C=C\C/C=C\CCCC(=O)O`
0.958

# query: normalized growth of entry `Cn1c([N+](=O)[O-])cnc1COC(N)=O`
0.994

# query: normalized growth of entry `Cc1ncc([N+](=O)[O-])n1CCO`
0.985

---

Test: chemical genetic growth profiling, strain panel (AID 1159580);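 also: tested at 20 µM; growth read once vehicle control cultures reached saturation at 30 °C; 1 = growth at the plate median or of vehicle wells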
Details: S. cerevisiae deletion strains, growth OD, locus YER111C, strain swi4, stronger effect = lower value
Screen size: about 5,500 compounds; about 2,000 (36%) were called active. Inconclusive results (about 18%) are left out. This is one part of the list.
Give measured normalized growth for each item. Keep answers brief.
Could you respond with only the numeric value?

# query: normalized growth of entry C[C@]12C=CC(=O)C=C1CCC1C2C(=O)C[C@@]2(C)C1CC[C@]2(O)C(=O)CO (stereo not given in full)
0.981

# query: normalized growth of entry `Cc1cc(O)c2c(c1O)C(=O)c1c(O)cc(C)c(O)c1C2=O`
0.963

# query: normalized growth of entry `CN1CCN(CCCN2c3ccccc3Sc3ccc(Cl)cc32)CC1`
0.993

# query: normalized growth of entry C[C@]12C=CC(=O)C=C1CCC1C2CC[C@]2(C)C(=O)CCC12 (stereo not given in full)
0.986

# query: normalized growth of entry C=C1CC2C(CCC3(C)C(=O)CCC23)C2(C)C=CC(=O)C=C12 (stereo not given)
0.945

---

Test: chemical genetic growth profiling, strain panel (AID 1159580);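 also: tested at 20 µM; growth read once vehicle control cultures reached saturation at 30 °C; 1 = growth at the plate median or of vehicle wells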
Details: S. cerevisiae deletion strains, growth OD, locus YOR069W, strain VPS5
Among all 5,500 compounds or so, about 2,000 (36%) were called active. Roughly 18% stayed inconclusive and do not appear here. No stated cut-off is given here; in the data, active means normalized growth mostly below about 0.91 (no sharp cut-off); inconclusive means no clear call, values can overlap the other calls; inactive means mostly above about 0.92. The list shows a part of the results.
Assign a class; possible classes are active, inactive

Outcome? `OCCN1CCN(CCCN2c3ccccc3Sc3ccc(Cl)cc32)CC1`
inactive

Outcome? C[C@]12CCC3C(CC[C@H]4CC(=O)CC[C@]34C)C1CCC2=O (stereo partly drawn)
inactive

Outcome? `COc1c(O)cc(O)cc1O`
inactive

Outcome? C[N+]1(C)C2CC[C@H]1CC(OC(=O)C(O)c1ccccc1)C2 (stereo partly drawn)
inactive

Outcome? CC1=C2CCC3C(CC[C@]4(C)C(=O)CCC34)[C@@]2(C)CCC1=O (stereo partly drawn)
inactive

Outcome? `O=c1n(CCCN2CCN(c3cccc(Cl)c3)CC2)nc2ccccn12`
inactive

Outcome? `COc1cc(O)c(C(=O)O)c(O)c1`
inactive

Outcome? `N#Cc1ccc2c(c1)N(CCCN1CCC(O)CC1)c1ccccc1S2`
inactive

Outcome? `CC(C)=CCc1c(O)cc2occ(-c3ccc4c(c3)OCO4)c(=O)c2c1O`
inactive

Outcome? C[C@]12CCC3C(CC[C@H]4C[C@@H](O)CC[C@]34C)C1CCC2=O (stereo partly drawn)
active

Outcome? CC(C)CCCC(C)C1CCC2C3CCC4CC(=O)CCC4(C)C3CCC12C (stereo not drawn)
inactive

Outcome? `COc1cc2c(cc1-c1coc3c4c(c(OC)cc3c1=O)OC(C)(C)C=C4)OCO2`
inactive

Outcome? C[C@]12CCC3C(CC[C@H]4C[C@@H](Cl)CC[C@]34C)C1CCC2=O (stereo partly drawn)
inactive

Outcome? C[C@]12C=CC(=O)C=C1CCC1C2C(=O)C[C@@]2(C)C1CC[C@]2(O)C(=O)CO (stereo partly drawn)
inactive

Outcome? `COc1cc(O)c(C(=O)c2ccccc2)c(OC)c1`
inactive

Outcome? `O=[N+]([O-])/N=C1/NCCN1Cc1ccc(Cl)cc1`
inactive

Outcome? `COc1cc(O)c(C)c(O)c1`
inactive

Outcome? `CC1(C)C=Cc2c(cc3occ(-c4ccc5c(c4)OCO5)c(=O)c3c2O)O1`
inactive

Outcome? `O=c1c(-c2ccc3c(c2)OCO3)coc2cc(O)ccc12`
inactive

Outcome? `COc1cc(OC)c(-c2c(OC)cc(OC)cc2OC)c(OC)c1`
inactive

Outcome? `Nc1ncnc2c1ncn2[C@@H]1O[C@H](CO)[C@@H](O)[C@@H]1O`
inactive

Outcome? `COc1cc(O)c(C(C)=O)c(OC)c1`
inactive

Outcome? `O=c1ccc2cc(O[C@@H]3O[C@H](CO)[C@@H](O)[C@H](O)[C@H]3O)c(O)cc2o1`
inactive
